# Lookup of reported growth inhibition keyed by entry
assay: NCI Yeast Anticancer Drug Screen. Data for the sgs1 mgt1 strain (AID 161);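 note: 0% = growth of cultures given vehicle only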; settings: S. cerevisiae sgs1 mgt1 strain, at 50.0 µM (retest, dose inferred, filed as 5.0), active compounds read high
The panel holds about 79,000 compounds, 15% with a hit somewhere; the sample as a whole holds those more often.
quantity-name: growth inhibition (%)

>  <compound>
O=C(O)c1ccccc1.[Zn+2]

>  <measurement>
9

$$$$
>  <compound>
[N-]=[N+]=NS(=O)(=O)c1ccccc1S(=O)(=O)N=[N+]=[N-]

>  <measurement>
99

$$$$
>  <compound>
CC(=O)c1ccc(-[n+]2c(C)cc(-c3ccccc3)cc2C)cc1

>  <measurement>
-8

$$$$
>  <compound>
NCCNCCNCCNCCN (tested in a mixture with another compound)

>  <measurement>
2

$$$$
>  <compound>
CCCC(=O)O.CCCC(=O)O.CCCC(=O)O.CCCC(=O)O.[Rh].[Rh]

>  <measurement>
59

$$$$
>  <compound>
CC1CCN(CCC(=O)CC(c2ccccc2)c2c(O)c3ccccc3oc2=O)CC1 (stereo unspecified)

>  <measurement>
12

$$$$
>  <compound>
Sc1nc2ccccc2s1.Sc1nc2ccccc2s1.Sc1nc2ccccc2s1.Sc1nc2ccccc2s1.[Cl][Rh][Cl]

>  <measurement>
97

$$$$
>  <compound>
CCCCSc1ccc(C(SCCN(CC)CC)c2ccccc2)cc1 (stereo unspecified)

>  <measurement>
100

$$$$
>  <compound>
O=[n+]1c2ccccc2n([O-])c2ccccc21

>  <measurement>
99

$$$$
>  <compound>
O=C(N/N=C(/CCN1CCCC1)CC(c1ccccc1)c1c(O)c2ccccc2oc1=O)c1ccncc1 (stereo unspecified)

>  <measurement>
-1

$$$$
>  <compound>
NC1=NC(=O)N2CC12 (stereo unspecified)

>  <measurement>
16

$$$$
